# System: MCF7
# protocol: Selectivity ratio of IC50 for human CCL186 cells to IC50 for human MCF7 cells
# Type: functional
Measured Ratio IC50, listed per entry.
Answer with a number only.

{"columns": ["line_notation", "target_desc", "Ratio IC50"],
 "data": [
  ["COc1cc(OC)c(C2CCN(C)CC2)cc1C(=O)/C=C/c1ccccc1Cl", "MCF7", 2.7],
  ["O=C(/C=C/c1ccccc1)c1ccc(N2CCCCC2)cc1", "MCF7", 1],
  ["CCN1CCC(c2cc(C(=O)/C=C/c3ccccc3)c(OC)cc2OC)CC1", "MCF7", 3.7]
]}

Tell me the measured Ratio IC50 of COc1cc(O)c(C(=O)/C=C/c2ccccc2)cc1C , please.
0.7

Item COc1cc(OC)c(N2CCN(C)CC2)cc1C(=O)/C=C/c1ccccc1 has what recorded Ratio IC50?
2.6

I'd like to know its Ratio IC50. The compound in question is CCN1CCC(c2cc(C(=O)/C=C/c3ccc(N4CCN(C)CC4)cc3)c(OC)cc2OC)CC1
2.3

These data points were gathered from ChEMBL document CHEMBL1137468.
